# procedure summary: Ratio of drug level in tumor to plasma in mouse xenografted with human COLO205 cells at 3 mg/kg after 2 hrs
# Type: ADME, organism-based, COLO 205
# Design: dose 3 mg/kg
reported endpoint: Kp at 2 h
Give bare numbers.

So what does the record say about Kp at 2 h for "O=C(c1ccc(F)c(F)c1Nc1ccc(I)cc1F)N1CC(O)([C@@H]2CCCCN2)C1" ? 9

* * *

# procedure summary: Fraction unbound in mouse brain
# Format: ADME, tissue-based
reported endpoint: fraction unbound
Numbers only.

Given the entry O=C(c1ccc(F)c(F)c1Nc1ccc(I)cc1F)N1CC(O)([C@@H]2CCCCN2)C1 [COBIMETINIB] , report its measured fraction unbound. 0.0012
